target: Dipeptidyl peptidase 8 (Homo sapiens); assay: In vitro inhibition of DPP-8
Sequence (Q6V1X1 whole entry): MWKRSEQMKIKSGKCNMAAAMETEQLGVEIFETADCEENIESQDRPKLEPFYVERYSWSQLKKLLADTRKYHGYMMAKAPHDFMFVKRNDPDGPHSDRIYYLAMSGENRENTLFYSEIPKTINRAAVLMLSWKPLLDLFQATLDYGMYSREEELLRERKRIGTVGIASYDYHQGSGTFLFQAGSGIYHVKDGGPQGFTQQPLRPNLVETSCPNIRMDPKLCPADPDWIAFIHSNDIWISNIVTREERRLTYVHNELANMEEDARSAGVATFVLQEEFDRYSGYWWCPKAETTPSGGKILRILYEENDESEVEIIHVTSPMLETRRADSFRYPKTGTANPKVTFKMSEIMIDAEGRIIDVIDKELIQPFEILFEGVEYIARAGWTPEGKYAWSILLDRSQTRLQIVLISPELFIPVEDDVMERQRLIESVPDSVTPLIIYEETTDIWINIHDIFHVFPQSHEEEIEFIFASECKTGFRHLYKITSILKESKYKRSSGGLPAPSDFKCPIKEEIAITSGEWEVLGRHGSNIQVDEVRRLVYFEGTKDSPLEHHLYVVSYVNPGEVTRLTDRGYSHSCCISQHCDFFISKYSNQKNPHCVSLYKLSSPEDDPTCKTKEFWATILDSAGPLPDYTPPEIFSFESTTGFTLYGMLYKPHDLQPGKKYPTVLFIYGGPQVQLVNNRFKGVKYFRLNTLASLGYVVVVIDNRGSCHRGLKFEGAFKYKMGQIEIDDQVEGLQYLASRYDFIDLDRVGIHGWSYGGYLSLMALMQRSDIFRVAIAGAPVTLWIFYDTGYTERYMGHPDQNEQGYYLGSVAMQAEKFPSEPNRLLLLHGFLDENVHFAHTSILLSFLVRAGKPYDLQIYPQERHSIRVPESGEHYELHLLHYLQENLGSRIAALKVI
In this section, each of the molecules is paired with its reported IC50.

Reference set (2 entries):
>  <structure.smiles>
CC(C)(CC(=O)NCCc1ccc(Cl)c(Cl)c1)NCC(=O)N1CCC[C@H]1C#N

>  <study.target>
Dipeptidyl peptidase 8 (Homo sapiens)

>  <IC50>
> 20 µM

$$$$
>  <structure.smiles>
CC(C)(CC(=O)NC(C)(C)Cc1ccccc1)NCC(=O)N1CCC[C@H]1C#N

>  <study.target>
Dipeptidyl peptidase 8 (Homo sapiens)

>  <IC50>
> 20 µM

$$$$

Lookup: Recall the recorded IC50 for CC(C)(CC(=O)Nc1ccc(F)cc1)NCC(=O)N1CCC[C@H]1C#N with Dipeptidyl peptidase 8 (Homo sapiens) and state it.
Found: > 20 µM

---

In this section, each of the molecules is paired with its reported IC50.
target: Prolyl endopeptidase FAP (Homo sapiens)
Sequence (Q12884 whole entry): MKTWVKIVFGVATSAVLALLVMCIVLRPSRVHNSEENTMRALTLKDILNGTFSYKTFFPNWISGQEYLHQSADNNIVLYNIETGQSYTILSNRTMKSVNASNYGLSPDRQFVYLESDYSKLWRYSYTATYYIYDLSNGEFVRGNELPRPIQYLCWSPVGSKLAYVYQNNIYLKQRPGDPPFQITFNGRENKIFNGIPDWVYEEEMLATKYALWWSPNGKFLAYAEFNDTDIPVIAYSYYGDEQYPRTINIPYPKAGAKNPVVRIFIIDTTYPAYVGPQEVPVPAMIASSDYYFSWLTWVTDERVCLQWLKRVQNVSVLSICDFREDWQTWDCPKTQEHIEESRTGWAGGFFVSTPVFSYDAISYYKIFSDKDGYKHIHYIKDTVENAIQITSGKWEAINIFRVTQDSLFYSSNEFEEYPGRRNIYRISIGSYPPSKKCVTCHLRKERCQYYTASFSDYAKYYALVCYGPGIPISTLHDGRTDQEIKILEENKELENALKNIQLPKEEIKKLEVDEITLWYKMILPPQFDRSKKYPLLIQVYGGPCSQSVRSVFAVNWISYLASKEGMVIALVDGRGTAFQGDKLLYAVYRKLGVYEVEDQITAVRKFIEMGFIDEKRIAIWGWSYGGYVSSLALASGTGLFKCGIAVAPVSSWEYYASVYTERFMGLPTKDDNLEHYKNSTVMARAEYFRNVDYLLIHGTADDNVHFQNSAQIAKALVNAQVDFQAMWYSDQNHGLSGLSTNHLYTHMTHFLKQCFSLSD

Lookup: Could you share which IC50 value was measured for N#C[C@@H]1CCCN1C(=O)CNCCC(=O)NCc1ccccc1 ?
Found: > 20 µM

Lookup: Lookup COc1ccc(NC(=O)CC(C)(C)NCC(=O)N2CCC[C@H]2C#N)c(OC)c1OC
Found: > 20 µM

Lookup: Lookup CC(C)(CC(=O)Nc1ccc(F)cc1)NCC(=O)N1CCC[C@H]1C#N
Found: > 20 µM
